- Test target: MAPK13 (human)
- Assay details: KINOMEscan competition binding
- Test parameters: compound 10.0 µM

{"Molecular string": "COCC(=O)NC/C=C/c1ccc2ncnc(Nc3ccc(Oc4ccc(C)nc4)c(C)c3)c2c1", "kinase still bound, per cent of control": "100%"}
{"Molecular string": "CNC(=O)c1ccc(Nc2cc(Nc3ccccc3S(=O)(=O)C(C)C)c3cc[nH]c3n2)nc1", "kinase still bound, per cent of control": "100%"}
{"Molecular string": "Cc1n[nH]c2ccc(-c3cncc(OC[C@@H](N)Cc4c[nH]c5ccccc45)c3)cc12", "kinase still bound, per cent of control": "4.4%"}
{"Molecular string": "COc1cc2ncnc(-n3nc(-c4ccccn4)nc3N)c2cc1OC", "kinase still bound, per cent of control": "100%"}
{"Molecular string": "C=CC(=O)Nc1ccc(CN(C(=O)Nc2c(Cl)c(OC)cc(OC)c2Cl)c2cc(Nc3ccc(N4CCN(C)CC4)cc3)ncn2)cc1", "kinase still bound, per cent of control": "4.9%"}
{"Molecular string": "C[C@@H](Oc1cc(-c2cnn(C3CCNCC3)c2)cnc1N)c1c(Cl)ccc(F)c1Cl", "kinase still bound, per cent of control": "100%"}
{"Molecular string": "N#CCNC(=O)c1ccc(-c2ccnc(Nc3ccc(N4CCOCC4)cc3)n2)cc1", "kinase still bound, per cent of control": "100%"}

----------
- Test target: MYLK2 (human) (UniProt Q9H1R3)
- Sequence (Q9H1R3 whole entry, looked up): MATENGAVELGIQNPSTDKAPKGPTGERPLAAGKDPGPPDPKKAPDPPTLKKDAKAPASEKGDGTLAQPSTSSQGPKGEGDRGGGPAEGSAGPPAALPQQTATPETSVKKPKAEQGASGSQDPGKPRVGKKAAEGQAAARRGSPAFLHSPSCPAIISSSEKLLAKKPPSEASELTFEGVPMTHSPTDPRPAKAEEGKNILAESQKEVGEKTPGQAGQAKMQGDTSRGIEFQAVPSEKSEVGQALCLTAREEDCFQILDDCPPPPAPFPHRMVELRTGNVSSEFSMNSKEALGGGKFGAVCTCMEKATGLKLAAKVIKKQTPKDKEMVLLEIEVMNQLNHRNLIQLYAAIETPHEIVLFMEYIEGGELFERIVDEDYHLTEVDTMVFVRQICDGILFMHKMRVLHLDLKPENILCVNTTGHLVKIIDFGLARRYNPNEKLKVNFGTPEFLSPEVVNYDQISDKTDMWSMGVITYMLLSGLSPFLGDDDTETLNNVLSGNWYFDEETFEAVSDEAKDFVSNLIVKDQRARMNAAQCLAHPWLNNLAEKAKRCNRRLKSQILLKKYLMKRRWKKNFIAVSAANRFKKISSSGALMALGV
- Assay details: KINOMEscan competition binding
- Test parameters: compound 10.0 µM
For each record, check the reported kinase still bound, per cent of control: if it is below 90% write Met, else write Not met.

{"Molecular string": "NC(=O)Nc1cc(-c2cccc(F)c2)sc1C(=O)N[C@@H]1CCCNC1", "Test target": "MYLK2 (human) (UniProt Q9H1R3)", "Class label": "Met"}
{"Molecular string": "COc1cc2ncn(-c3cc(OCc4ccccc4C(F)(F)F)c(C(N)=O)s3)c2cc1OC", "Test target": "MYLK2 (human) (UniProt Q9H1R3)", "Class label": "Met"}
{"Molecular string": "CCN1CCN(C(=O)Cc2ccc(Nc3ncc(F)c(Nc4ccc(C(=O)Nc5ccccc5Cl)cc4)n3)cc2)CC1", "Test target": "MYLK2 (human) (UniProt Q9H1R3)", "Class label": "Met"}
{"Molecular string": "Cc1n[nH]c2ccc(-c3cncc(OC[C@@H](N)Cc4c[nH]c5ccccc45)c3)cc12", "Test target": "MYLK2 (human) (UniProt Q9H1R3)", "Class label": "Not met"}
{"Molecular string": "CCN(CC)CCCCNc1ncc2c(n1)N(C)C(=O)N(c1c(Cl)c(OC)cc(OC)c1Cl)C2", "Test target": "MYLK2 (human) (UniProt Q9H1R3)", "Class label": "Not met"}
{"Molecular string": "O=C1NC(=O)/C(=C/c2ccc3nccc(-c4ccncc4)c3c2)S1", "Test target": "MYLK2 (human) (UniProt Q9H1R3)", "Class label": "Met"}
{"Molecular string": "COc1cc2ncnc(-n3nc(-c4ccccn4)nc3N)c2cc1OC", "Test target": "MYLK2 (human) (UniProt Q9H1R3)", "Class label": "Met"}
{"Molecular string": "CS(=O)(=O)N1CCN(Cc2cc3nc(-c4cccc5[nH]ncc45)nc(N4CCOCC4)c3s2)CC1", "Test target": "MYLK2 (human) (UniProt Q9H1R3)", "Class label": "Not met"}

----------
- Test target: MST1R (human) (UniProt Q04912)
- Sequence (Q04912 whole entry, looked up): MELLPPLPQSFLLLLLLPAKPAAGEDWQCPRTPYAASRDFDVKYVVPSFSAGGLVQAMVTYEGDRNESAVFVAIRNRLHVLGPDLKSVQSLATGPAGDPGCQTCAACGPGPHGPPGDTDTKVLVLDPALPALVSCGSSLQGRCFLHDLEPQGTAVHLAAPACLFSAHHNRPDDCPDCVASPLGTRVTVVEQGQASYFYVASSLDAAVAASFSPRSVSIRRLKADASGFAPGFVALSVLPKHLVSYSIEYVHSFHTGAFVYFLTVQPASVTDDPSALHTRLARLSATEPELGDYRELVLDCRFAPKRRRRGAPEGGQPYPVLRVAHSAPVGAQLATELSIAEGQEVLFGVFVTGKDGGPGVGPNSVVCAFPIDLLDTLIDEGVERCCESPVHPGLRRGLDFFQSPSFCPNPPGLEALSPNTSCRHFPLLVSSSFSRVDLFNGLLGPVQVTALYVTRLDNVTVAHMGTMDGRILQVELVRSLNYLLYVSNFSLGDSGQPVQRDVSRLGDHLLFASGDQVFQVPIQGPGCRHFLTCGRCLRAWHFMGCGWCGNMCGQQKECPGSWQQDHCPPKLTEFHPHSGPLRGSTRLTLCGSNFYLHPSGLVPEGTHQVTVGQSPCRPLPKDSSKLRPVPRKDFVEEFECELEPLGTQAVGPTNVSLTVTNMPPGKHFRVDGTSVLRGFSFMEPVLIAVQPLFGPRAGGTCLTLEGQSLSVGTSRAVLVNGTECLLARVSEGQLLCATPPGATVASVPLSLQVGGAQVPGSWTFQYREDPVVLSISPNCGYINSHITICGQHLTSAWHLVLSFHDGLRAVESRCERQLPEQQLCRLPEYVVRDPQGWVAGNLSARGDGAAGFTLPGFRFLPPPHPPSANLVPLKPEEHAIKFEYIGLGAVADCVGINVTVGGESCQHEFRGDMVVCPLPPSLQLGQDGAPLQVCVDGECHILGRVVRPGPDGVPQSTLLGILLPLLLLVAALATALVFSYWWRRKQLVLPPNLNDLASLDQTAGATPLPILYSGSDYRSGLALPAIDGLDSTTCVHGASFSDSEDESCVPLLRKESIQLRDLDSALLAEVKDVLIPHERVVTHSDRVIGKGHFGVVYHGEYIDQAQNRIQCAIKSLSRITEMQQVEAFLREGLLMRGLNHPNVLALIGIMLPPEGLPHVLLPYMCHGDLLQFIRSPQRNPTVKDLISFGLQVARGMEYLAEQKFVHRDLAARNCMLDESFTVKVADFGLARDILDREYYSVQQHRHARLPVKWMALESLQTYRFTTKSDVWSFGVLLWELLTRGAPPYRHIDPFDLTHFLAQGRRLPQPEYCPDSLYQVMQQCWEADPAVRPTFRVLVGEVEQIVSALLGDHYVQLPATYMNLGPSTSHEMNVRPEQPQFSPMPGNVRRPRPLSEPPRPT
- Assay details: KINOMEscan competition binding
- Test parameters: compound 10.0 µM

{"Molecular string": "C=CC(=O)Nc1cc(-n2c(=O)ccc3cnc4ccc(-c5cn[nH]c5)cc4c32)ccc1C", "Unit of measure": "%", "kinase still bound, per cent of control": 99}
{"Molecular string": "NC(=O)Nc1cc(-c2cccc(F)c2)sc1C(=O)N[C@@H]1CCCNC1", "Unit of measure": "%", "kinase still bound, per cent of control": 12}
{"Molecular string": "CN(C)C/C=C/C(=O)Nc1ccc(C(=O)Nc2cccc(Nc3nccc(-c4cccnc4)n3)c2)cc1", "Unit of measure": "%", "kinase still bound, per cent of control": 100}
{"Molecular string": "CS(=O)(=O)N1CCN(Cc2cc3nc(-c4cccc5[nH]ncc45)nc(N4CCOCC4)c3s2)CC1", "Unit of measure": "%", "kinase still bound, per cent of control": 100}
{"Molecular string": "N#CCNC(=O)c1ccc(-c2ccnc(Nc3ccc(N4CCOCC4)cc3)n2)cc1", "Unit of measure": "%", "kinase still bound, per cent of control": 100}
{"Molecular string": "COc1cc2ncn(-c3cc(OCc4ccccc4C(F)(F)F)c(C(N)=O)s3)c2cc1OC", "Unit of measure": "%", "kinase still bound, per cent of control": 100}
{"Molecular string": "CNC(=O)c1ccc(Nc2cc(Nc3ccccc3S(=O)(=O)C(C)C)c3cc[nH]c3n2)nc1", "Unit of measure": "%", "kinase still bound, per cent of control": 100}
{"Molecular string": "CNC(=O)c1cc(Oc2ccc(NC(=O)Nc3ccc(Cl)c(C(F)(F)F)c3)cc2)ccn1", "Unit of measure": "%", "kinase still bound, per cent of control": 74}
{"Molecular string": "COc1cc2ncnc(-n3nc(-c4ccccn4)nc3N)c2cc1OC", "Unit of measure": "%", "kinase still bound, per cent of control": 100}
{"Molecular string": "COc1ccc(N(C(=O)Oc2c(C)cccc2C)c2ccnc(Nc3ccc(N4CCN(C)CC4)cc3)n2)c(OC)c1", "Unit of measure": "%", "kinase still bound, per cent of control": 16}
{"Molecular string": "CCN(CC)CCCCNc1ncc2c(n1)N(C)C(=O)N(c1c(Cl)c(OC)cc(OC)c1Cl)C2", "Unit of measure": "%", "kinase still bound, per cent of control": 100}
{"Molecular string": "O=c1cc(N2CCOCC2)oc2c(-c3cccc4c3sc3ccccc34)cccc12", "Unit of measure": "%", "kinase still bound, per cent of control": 97}
{"Molecular string": "COCC(=O)NC/C=C/c1ccc2ncnc(Nc3ccc(Oc4ccc(C)nc4)c(C)c3)c2c1", "Unit of measure": "%", "kinase still bound, per cent of control": 100}
{"Molecular string": "CCN1CCN(C(=O)Cc2ccc(Nc3ncc(F)c(Nc4ccc(C(=O)Nc5ccccc5Cl)cc4)n3)cc2)CC1", "Unit of measure": "%", "kinase still bound, per cent of control": 100}
{"Molecular string": "C=CC(=O)Nc1ccc(CN(C(=O)Nc2c(Cl)c(OC)cc(OC)c2Cl)c2cc(Nc3ccc(N4CCN(C)CC4)cc3)ncn2)cc1", "Unit of measure": "%", "kinase still bound, per cent of control": 100}

----------
- System: RET (human), P07949 [M918T]
- Sequence (P07949 whole entry M918T, looked up): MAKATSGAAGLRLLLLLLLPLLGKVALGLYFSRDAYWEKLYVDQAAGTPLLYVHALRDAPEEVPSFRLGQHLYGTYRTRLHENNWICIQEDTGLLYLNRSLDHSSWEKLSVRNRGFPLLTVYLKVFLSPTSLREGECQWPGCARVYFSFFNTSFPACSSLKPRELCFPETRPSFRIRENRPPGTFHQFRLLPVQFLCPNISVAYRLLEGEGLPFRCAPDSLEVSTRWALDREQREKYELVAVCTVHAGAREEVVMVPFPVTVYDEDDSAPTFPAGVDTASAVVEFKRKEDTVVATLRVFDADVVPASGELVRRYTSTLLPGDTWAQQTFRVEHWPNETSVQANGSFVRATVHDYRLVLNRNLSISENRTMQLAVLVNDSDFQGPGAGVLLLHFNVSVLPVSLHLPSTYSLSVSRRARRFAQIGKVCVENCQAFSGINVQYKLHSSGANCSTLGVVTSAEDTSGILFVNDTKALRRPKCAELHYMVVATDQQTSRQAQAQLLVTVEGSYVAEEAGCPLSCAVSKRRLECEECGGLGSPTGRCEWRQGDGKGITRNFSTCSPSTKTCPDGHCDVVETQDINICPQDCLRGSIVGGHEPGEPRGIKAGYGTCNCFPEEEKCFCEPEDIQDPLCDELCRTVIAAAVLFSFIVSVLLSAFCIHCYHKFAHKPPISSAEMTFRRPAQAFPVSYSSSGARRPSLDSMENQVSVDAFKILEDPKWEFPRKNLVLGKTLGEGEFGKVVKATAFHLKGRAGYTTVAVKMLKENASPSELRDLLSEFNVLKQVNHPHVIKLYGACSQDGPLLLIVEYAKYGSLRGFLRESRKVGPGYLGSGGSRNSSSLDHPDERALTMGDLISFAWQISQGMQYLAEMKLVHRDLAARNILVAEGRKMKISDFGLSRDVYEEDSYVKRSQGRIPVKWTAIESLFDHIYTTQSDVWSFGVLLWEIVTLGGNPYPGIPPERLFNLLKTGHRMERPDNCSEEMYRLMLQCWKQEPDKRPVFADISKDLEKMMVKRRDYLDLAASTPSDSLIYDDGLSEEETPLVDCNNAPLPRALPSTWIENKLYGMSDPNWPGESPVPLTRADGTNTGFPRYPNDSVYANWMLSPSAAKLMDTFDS
- Assay details: KINOMEscan competition binding
- Test parameters: compound 10.0 µM

{"Compound": "COc1cc(N2CCC(C(N)=O)CC2)ccc1Nc1nc(N)c(Cl)c(Nc2ccccc2S(=O)(=O)C(C)C)n1", "kinase still bound, per cent of control [%]": 100}
{"Compound": "N#C/C(=C1/Nc2ccccc2S1)c1ccnc(NCCc2cccnc2)n1", "kinase still bound, per cent of control [%]": 100}
{"Compound": "C=CC(=O)Nc1cccc(Oc2nc(Nc3ccc(N4CCN(C)CC4)cc3OC)ncc2Cl)c1", "kinase still bound, per cent of control [%]": 100}
{"Compound": "C=CC(=O)Nc1cc(-n2c(=O)ccc3cnc4ccc(-c5cn[nH]c5)cc4c32)ccc1C", "kinase still bound, per cent of control [%]": 51}
{"Compound": "Cn1c(=O)n(-c2ccc(C(C)(C)C#N)cc2)c2c3cc(-c4cnc5ccccc5c4)ccc3ncc21", "kinase still bound, per cent of control [%]": 100}
{"Compound": "COCC(=O)NC/C=C/c1ccc2ncnc(Nc3ccc(Oc4ccc(C)nc4)c(C)c3)c2c1", "kinase still bound, per cent of control [%]": 77}
{"Compound": "CCCS(=O)(=O)Nc1ccc(F)c(C(=O)c2c[nH]c3ncc(Cl)cc23)c1F", "kinase still bound, per cent of control [%]": 40}
{"Compound": "C=CC(=O)Nc1ccc(C(=O)c2sc(Nc3ccc(N4CCN(C)CC4)cc3OC)nc2N)cc1", "kinase still bound, per cent of control [%]": 100}
{"Compound": "Cc1ccc(NC(=O)c2cccc(C(C)(C)C#N)c2)cc1Nc1ccc2ncn(C)c(=O)c2c1", "kinase still bound, per cent of control [%]": 0.4}
{"Compound": "Nc1ccc(-c2ccc3ncc4ccc(=O)n(-c5cccc(C(F)(F)F)c5)c4c3c2)cn1", "kinase still bound, per cent of control [%]": 79}
{"Compound": "CCN1CCN(C(=O)Cc2ccc(Nc3ncc(F)c(Nc4ccc(C(=O)Nc5ccccc5Cl)cc4)n3)cc2)CC1", "kinase still bound, per cent of control [%]": 0.55}
{"Compound": "COc1cc2ncn(-c3cc(OCc4ccccc4C(F)(F)F)c(C(N)=O)s3)c2cc1OC", "kinase still bound, per cent of control [%]": 8}
{"Compound": "CCOc1cc(N2CCC(O)CC2)ccc1Nc1ncc2c(n1)N(C)c1ccccc1C(=O)N2C", "kinase still bound, per cent of control [%]": 100}
{"Compound": "COc1cc(N2CCN(C)CC2)ccc1Nc1nc(N)c(C(=O)c2c(Cl)cccc2Cl)s1", "kinase still bound, per cent of control [%]": 100}
{"Compound": "CN(C)C/C=C/C(=O)Nc1ccc(C(=O)Nc2cccc(Nc3nccc(-c4cccnc4)n3)c2)cc1", "kinase still bound, per cent of control [%]": 70}
{"Compound": "COc1cc(C(=O)N2CCC(N3CCN(C)CC3)CC2)ccc1Nc1ncc2c(n1)N(C)c1ccccc1C(=O)N2C", "kinase still bound, per cent of control [%]": 100}
{"Compound": "CNC(=O)Nc1ccc(-c2nc(N3CC4CCC(C3)O4)c3cnn(C4CCC5(CC4)OCCO5)c3n2)cc1", "kinase still bound, per cent of control [%]": 73}
{"Compound": "CCC(=O)N1CCN(c2ccc(-n3c(=O)ccc4cnc5ccc(-c6cnc7ccccc7c6)cc5c43)cc2C(F)(F)F)CC1", "kinase still bound, per cent of control [%]": 51}
{"Compound": "CCOc1cc2ncc(C#N)c(Nc3ccc(OCc4ccccn4)c(Cl)c3)c2cc1NC(=O)/C=C/CN(C)C", "kinase still bound, per cent of control [%]": 100}
{"Compound": "CN(C)C/C=C/C(=O)Nc1cccc(Nc2ncc3c(n2)N(C)c2ccccc2C(=O)N3C)c1", "kinase still bound, per cent of control [%]": 0.55}
{"Compound": "N#Cc1cc(-c2ccnc(Nc3ccc(-n4cnc(-c5cccnc5)n4)cc3)n2)cc(N2CCOCC2)c1", "kinase still bound, per cent of control [%]": 100}
{"Compound": "Cc1n[nH]c2ccc(-c3cncc(OC[C@@H](N)Cc4c[nH]c5ccccc45)c3)cc12", "kinase still bound, per cent of control [%]": 100}
{"Compound": "CCN1CCN(Cc2ccc(NC(=O)c3ccc(C)c(/C=C/c4cnc5[nH]ccc5c4OC)c3)cc2C(F)(F)F)CC1", "kinase still bound, per cent of control [%]": 0}
{"Compound": "CCN1CCN(Cc2ccc(Nc3ncc4c(n3)N(C)c3ccccc3C(=O)N4C)cc2C(F)(F)F)CC1", "kinase still bound, per cent of control [%]": 0.6}
{"Compound": "COc1cc(N2CCN(C)CC2)ccc1Nc1ncc2c(n1)N(C)c1ccccc1C(=O)N2C", "kinase still bound, per cent of control [%]": 100}
{"Compound": "COc1cc(C(=O)NC2CCN(C)CC2)ccc1Nc1ncc2c(n1)N(C1CCCC1)C(C)CC(=O)N2C (stereo unspecified)", "kinase still bound, per cent of control [%]": 100}
{"Compound": "CCN(CC)CCCCNc1ncc2c(n1)N(C)C(=O)N(c1c(Cl)c(OC)cc(OC)c1Cl)C2", "kinase still bound, per cent of control [%]": 100}
{"Compound": "CCN(CC)CCCCNc1ncc2cc(-c3cc(OC)cc(OC)c3)c(NC(=O)NC(C)(C)C)nc2n1", "kinase still bound, per cent of control [%]": 100}
{"Compound": "COc1cc2c(Nc3ccc(NC(=O)c4ccccc4)cc3)ncnc2cc1OCCCN1CCOCC1", "kinase still bound, per cent of control [%]": 0.1}
{"Compound": "NC(=O)Nc1cc(-c2cccc(F)c2)sc1C(=O)N[C@@H]1CCCNC1", "kinase still bound, per cent of control [%]": 0}
{"Compound": "O=c1cc(N2CCOCC2)oc2c(-c3cccc4c3sc3ccccc34)cccc12", "kinase still bound, per cent of control [%]": 98}
{"Compound": "C[C@@H](Oc1cc(-n2cnc3ccc(CN4CCN(C)CC4)cc32)sc1C(N)=O)c1ccccc1C(F)(F)F", "kinase still bound, per cent of control [%]": 100}
{"Compound": "C=CC(=O)Nc1cc(NC(=O)c2ccc(C)c(NC(=O)c3ccno3)c2)cc(C(F)(F)F)c1", "kinase still bound, per cent of control [%]": 100}
{"Compound": "Cc1cc([C@@H](C)Nc2ccccc2C(=O)O)c2nc(N3CCOCC3)cc(=O)n2c1", "kinase still bound, per cent of control [%]": 100}
{"Compound": "COc1cc(C(=O)NC2CCN(C)CC2)ccc1Nc1ncc2c(n1)N(C1CCCC1)CCC(=O)N2C(C)C", "kinase still bound, per cent of control [%]": 0}
{"Compound": "O=C(NC1CC1)c1cccc(-c2ccc3c(NC(=O)C4CC4)n[nH]c3c2)c1", "kinase still bound, per cent of control [%]": 71}
